These data points were gathered from paper PMC5928494.

- method-summary: in vitro
- conditions: human
endpoint: IC50 (nM)
Value expressed in nM; do not type the unit.

Quickly give me recorded IC50 for `CC(=O)O[C@H]1C(=O)[C@@]2(C)[C@H]([C@H](OC(=O)c3ccccc3)[C@]3(O)C[C@H](OC(=O)[C@H](O)[C@@H](NC(=O)c4ccccc4)c4ccccc4)C(C)=C1C3(C)C)[C@]1(OC(C)=O)CO[C@@H]1C[C@@H]2O` 175
